Form field: IC50 (one value per entry).
target: TBK1 (Homo sapiens); construct: His-tag; made in house; host or cells: Sf9 insect cells; assay: In-vitro TBK1 kinase assay ([γ33]ATP filter-plate); assay type: biochemical; conditions: text bins; read-out: IC50 for inhibition of the kinase activity of TBK1
Sequence (Q9UHD2 whole entry): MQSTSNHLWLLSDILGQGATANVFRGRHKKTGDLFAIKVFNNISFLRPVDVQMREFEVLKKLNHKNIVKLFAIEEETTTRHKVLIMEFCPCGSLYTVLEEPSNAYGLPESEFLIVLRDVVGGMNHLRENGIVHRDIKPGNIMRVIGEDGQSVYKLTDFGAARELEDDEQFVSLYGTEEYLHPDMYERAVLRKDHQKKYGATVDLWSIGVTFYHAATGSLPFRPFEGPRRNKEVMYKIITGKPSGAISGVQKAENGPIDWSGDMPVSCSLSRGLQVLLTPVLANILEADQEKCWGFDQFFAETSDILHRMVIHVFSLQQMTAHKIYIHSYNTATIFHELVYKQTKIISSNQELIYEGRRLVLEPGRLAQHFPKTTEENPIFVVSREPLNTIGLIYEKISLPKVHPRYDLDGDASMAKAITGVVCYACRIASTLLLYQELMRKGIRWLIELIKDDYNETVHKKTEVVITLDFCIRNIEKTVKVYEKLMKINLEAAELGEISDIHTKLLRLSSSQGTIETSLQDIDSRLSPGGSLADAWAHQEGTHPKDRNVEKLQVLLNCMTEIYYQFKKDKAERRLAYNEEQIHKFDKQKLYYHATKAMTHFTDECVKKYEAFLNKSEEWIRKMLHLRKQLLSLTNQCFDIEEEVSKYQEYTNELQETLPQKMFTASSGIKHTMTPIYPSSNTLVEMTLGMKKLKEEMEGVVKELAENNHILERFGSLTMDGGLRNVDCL

Here are 2 molecules together with their reported answers.
COCCNCc1ccc(Nc2nccc(-c3ccc(OCC4CC4)c(C#N)c3)n2)cc1    < 0.01 µM
COc1cc(Nc2nccc(-c3ccc(OC(C)C)c(C#N)c3)n2)cc(OC)c1OC    < 0.01 µM

Now look at this one.
Fill: IC50 (TBK1 (Homo sapiens)) for this molecule `COc1cc(Nc2nccc(-c3ccc(OC4CCN(C(=O)[C@H](C)O)CC4)c(C#N)c3)n2)ccc1N1CCOCC1`
< 0.01 µM

====

Form field: pIC50 (one value per entry).
molecular target: IKKε (Homo sapiens, UniProt Q14164); construct: His-tag; made in house; host or cells: Sf9 insect cells; test: In-vitro IKKε kinase assay ([γ33]ATP filter-plate); format: biochemical; settings: text bins; read-out: IC50 for inhibition of the kinase activity of IKKε
Sequence (Q14164 whole entry): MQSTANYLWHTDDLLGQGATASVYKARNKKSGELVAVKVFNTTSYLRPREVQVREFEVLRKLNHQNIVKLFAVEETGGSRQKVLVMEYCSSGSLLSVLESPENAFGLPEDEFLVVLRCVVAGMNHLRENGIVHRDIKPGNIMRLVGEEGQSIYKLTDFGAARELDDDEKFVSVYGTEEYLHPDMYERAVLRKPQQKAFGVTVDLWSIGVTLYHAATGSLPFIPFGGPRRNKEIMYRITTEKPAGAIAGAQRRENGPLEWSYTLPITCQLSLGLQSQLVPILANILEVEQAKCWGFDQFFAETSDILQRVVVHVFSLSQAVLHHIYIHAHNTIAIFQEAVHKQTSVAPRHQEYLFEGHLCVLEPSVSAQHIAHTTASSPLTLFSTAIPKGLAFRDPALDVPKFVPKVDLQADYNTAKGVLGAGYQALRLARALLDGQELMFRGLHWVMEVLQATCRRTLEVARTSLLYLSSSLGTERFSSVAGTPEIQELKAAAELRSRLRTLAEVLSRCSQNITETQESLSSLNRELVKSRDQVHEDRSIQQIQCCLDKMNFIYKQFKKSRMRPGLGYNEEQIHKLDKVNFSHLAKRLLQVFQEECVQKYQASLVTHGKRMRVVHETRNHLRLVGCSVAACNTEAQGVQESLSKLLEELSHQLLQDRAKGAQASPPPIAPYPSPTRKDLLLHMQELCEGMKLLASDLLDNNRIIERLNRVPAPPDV
pIC50: −log10 of the molar value.

Here are 3 compounds together with their reported answers.
COc1cc(Nc2nccc(-c3ccc(OC4CCOCC4)c(C#N)c3)n2)ccc1C(=O)NCCN(C)C    > 8.30
CNS(=O)(=O)Cc1cccc(Nc2nccc(-c3ccc(OC4CCOCC4)c(C#N)c3)n2)c1    > 8.30
CC(C)COC(=O)Nc1ccc(-c2ccnc(Nc3ccc(N4CCOCC4)cc3)n2)cc1C#N    6.30 to 7.30

Now look at this one.
In one line, give reported pIC50 of the entry `COc1ccc(Nc2nccc(-c3ccc(OC(C)C)c(C#N)c3)n2)cc1OC` .
> 8.30

====

Form field: pIC50 (one value per entry).
molecular target: IKKε (Homo sapiens, UniProt Q14164); construct: His-tag; made in house; host or cells: Sf9 insect cells; test: In-vitro IKKε kinase assay ([γ33]ATP filter-plate); assay type: biochemical; details: text bins; read-out: IC50 for inhibition of the kinase activity of IKKε
pIC50: −log10 of the molar value.

Fill: pIC50 (IKKε (Homo sapiens, UniProt Q14164)) for this compound `COC1CN(C(=O)c2ccc(Nc3nccc(-c4ccc(NC(=O)C5CC5)c(C#N)c4)n3)cc2)C1`
> 8.30

====

Form field: IC50 (one value per entry).
Target: IKKε (Homo sapiens, UniProt Q14164)
Construct: His-tag; made in house; host or cells: Sf9 insect cells
Assay: In-vitro IKKε kinase assay ([γ33]ATP filter-plate)
Format: biochemical
Details: text bins; read-out: IC50 for inhibition of the kinase activity of IKKε
Method: IKKε enzyme was produced as a His-tag fusion in Sf9 cells and used at a final concentration of […]. TBK1 enzyme was produced as a His-tag fusion in Sf9 cells and used at a final concentration of 0.1 μg/ml. […] After air drying, scintillant (PerkinElmer, Waltham, Mass.) was added and the plates were read on a PerkinElmer TopCount NXT instrument. […]

Here are 8 compounds together with their reported answers.
COc1cc(Nc2nccc(-c3ccc(OCC4CC4)c(C#N)c3)n2)ccc1CN1CC(OC)C1 [compound 617]    < 5 nM
N#Cc1cc(-c2ccnc(Nc3ccc(N4CCOCC4)cc3)n2)ccc1OCC[C@H]1CCCCN1C(=O)CO [compound 448]    50 to 500 nM
CCN(CC)CCNC(=O)c1ccc(Nc2nccc(-c3ccc(OC4CCOCC4)c(C#N)c3)n2)cc1OC [compound 506]    < 5 nM
COc1ccc(Nc2ncc(C)c(-c3cccc(C#N)c3)n2)cc1OC [compound 304]    50 to 500 nM
C[C@@H](O)C(=O)Nc1cccc(Nc2nccc(-c3ccc(OC4CCOCC4)c(C#N)c3)n2)c1 [compound 659]    < 5 nM
N#Cc1cc(-c2ccnc(Nc3ccc(N4CCOCC4)cc3)n2)ccc1NC(=O)C1CCCC1 [Example 56]    5 to 50 nM
CC(=O)N1CCCC(COc2ccc(-c3ccnc(Nc4ccc(N5CCOCC5)cc4)n3)cc2C#N)C1 (stereo not shown) [Example 161]    5 to 50 nM
COc1cc(Nc2nccc(-c3ccc(OC4CCOCC4)c(C#N)c3)n2)ccc1OCCCS(=O)(=O)N1CCN(C)CC1 [Example 25]    < 5 nM

In one line, give reported IC50 of the entry CC(C)C(=O)Nc1ccc(-c2ccnc(Nc3cccc(OCCN4CCOCC4)c3)n2)cc1C#N [compound 432] .
5 to 50 nM

In one line, give reported IC50 of the entry COc1cc(Nc2ncc(F)c(-c3ccc(O[C@@H]4CCN(C(=O)CO)C4)c(C#N)c3)n2)ccc1N1CCOCC1 [compound 552] .
< 5 nM

In one line, give reported IC50 of the entry COc1cc(Nc2nccc(-c3ccc(OC4CCOCC4)c(C#N)c3)n2)ccc1C(=O)N1CCN(CCO)CC1 [compound 476] .
< 5 nM

In one line, give reported IC50 of the entry COc1ccc(Nc2nccc(-c3ccc(OC4CCOCC4)c(C#N)c3)n2)cc1OCCOCCN [Example 32] .
< 5 nM

In one line, give reported IC50 of the entry COc1cc(Nc2nccc(-c3ccc(OC4CCOCC4)c(C#N)c3)n2)ccc1CN1CC(O)C1 [compound 483] .
5 to 50 nM
